# TEST: qHTS Assay for Lipid Storage Modulators (AID 1519)
# CONDITION: Drosophila S3 cells, BODIPY lipid droplet/cell ratio, laser cytometry; measured here: lipid channel max response; cells loaded with oleic acid
Records with an inconclusive call do not appear.
Kind request: treat 10% as inclusive, so max response at 10% or higher is 1.0, anything lower is 0.0.

> print(dat)
                                   compound  assigned.category
1      O=C(O)CN(CCN(CC(=O)O)CC(=O)O)CC(=O)O                0.0
2  CC1=C(/C=C/C(C)=C/C=C/C(C)=C/C=C/C=C(C)/C=C/C=C(C)/C=C/C2=C(C)C(=O)CCC2(C)C)C(C)(C)CCC1=O                1.0
3  Oc1cc(O)c2c(c1)OC(c1ccc(O)c(O)c1)C(O)C2 (stereo not given)                1.0
4  CCCC(=O)Nc1ncnc2c1ncn2[C@@H]1O[C@@H]2COP(=O)(O)O[C@H]2[C@H]1OC(=O)CCC                0.0
5  CC1(C)S[C@@H]2[C@H](NC(=O)Cc3ccccc3)C(=O)N2[C@H]1C(=O)O                0.0
